Target: AgRvs167
Experiment: SPOT peptide array binding signal intensity (averaged, normalized) (arbitrary units (background-subtracted, floor 0; scale differs between SH3 domains)); higher = stronger binding of the SH3 domain to the peptide
Classify as follows. Reported SPOT peptide array binding signal intensity greater than or equal to 3: fulfilled. Reported SPOT peptide array binding signal intensity below: not fulfilled.

| binder | answer-label |
| --- | --- |
| QRIRKIPGIPLMSVG | fulfilled |
| SKIRPTPRKPSRMAT | fulfilled |
| LRIKRKPVQTFFEFI | fulfilled |
| ALKQKKIPPPFKPHL | not fulfilled |
| TEVPIPRRPPPPQAA | not fulfilled |

SPOT peptide array binding signal intensity >= 3 for LKVTPGRRAPTISKI ?
not fulfilled

State whether the measured SPOT peptide array binding signal intensity reaches 3, counting equality as reaching it, for LFMKGTPEFPKSGFS
not fulfilled

Item SRSKPLPLTPNSKYN with SPOT peptide array binding signal intensity of 3 or above?
not fulfilled

Does the reported SPOT peptide array binding signal intensity for AERNYAPRLPRRETS fall at or above the 3 mark?
fulfilled
